Values compiled from ChEMBL document CHEMBL1147465.

Target: Telomerase reverse transcriptase (Homo sapiens) (UniProt O14746)
Sequence (O14746 whole entry): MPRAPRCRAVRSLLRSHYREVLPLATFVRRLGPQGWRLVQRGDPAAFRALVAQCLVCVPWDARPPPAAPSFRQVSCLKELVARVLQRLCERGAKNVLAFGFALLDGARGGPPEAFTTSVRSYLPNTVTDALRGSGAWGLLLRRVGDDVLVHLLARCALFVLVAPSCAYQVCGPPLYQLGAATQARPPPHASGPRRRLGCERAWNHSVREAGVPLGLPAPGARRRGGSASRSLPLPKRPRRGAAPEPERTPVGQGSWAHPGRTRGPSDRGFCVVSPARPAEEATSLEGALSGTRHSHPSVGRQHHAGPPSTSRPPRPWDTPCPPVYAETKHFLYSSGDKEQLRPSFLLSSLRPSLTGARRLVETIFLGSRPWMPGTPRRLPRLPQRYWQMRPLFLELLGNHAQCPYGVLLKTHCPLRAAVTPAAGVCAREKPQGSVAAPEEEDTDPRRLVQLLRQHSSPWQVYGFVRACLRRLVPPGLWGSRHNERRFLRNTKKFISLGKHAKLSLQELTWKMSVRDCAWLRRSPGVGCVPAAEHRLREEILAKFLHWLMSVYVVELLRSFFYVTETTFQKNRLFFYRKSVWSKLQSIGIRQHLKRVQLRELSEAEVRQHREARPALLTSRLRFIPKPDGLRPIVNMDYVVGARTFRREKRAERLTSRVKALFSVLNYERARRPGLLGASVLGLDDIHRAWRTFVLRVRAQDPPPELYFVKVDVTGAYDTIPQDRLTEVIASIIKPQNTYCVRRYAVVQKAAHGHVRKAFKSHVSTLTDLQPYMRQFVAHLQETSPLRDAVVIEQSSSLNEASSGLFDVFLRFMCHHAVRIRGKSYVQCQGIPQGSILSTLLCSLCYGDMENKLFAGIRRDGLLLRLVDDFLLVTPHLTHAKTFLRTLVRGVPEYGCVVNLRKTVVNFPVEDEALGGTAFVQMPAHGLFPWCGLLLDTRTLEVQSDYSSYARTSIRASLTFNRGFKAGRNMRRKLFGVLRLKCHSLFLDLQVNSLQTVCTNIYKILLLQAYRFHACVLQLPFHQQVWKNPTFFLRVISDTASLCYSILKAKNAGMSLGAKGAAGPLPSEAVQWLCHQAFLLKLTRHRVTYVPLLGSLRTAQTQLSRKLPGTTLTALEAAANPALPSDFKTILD
Test: Inhibition of human telomerase before assembly using recombinant hTR and hTERT at 50 uM
testReadout: inhibition (%)

[
  {
    "compound": "N=C(N)c1ccc(-c2cc3ccc(C(=N)N)cc3[nH]2)cc1",
    "measurementTarget": "Telomerase reverse transcriptase (Homo sapiens) (UniProt O14746)",
    "assayValue": 90
  },
  {
    "compound": "CCN(CC)CCCC(C)Nc1c2ccc(Cl)cc2nc2ccc(OC)cc12 (configuration not stated)",
    "measurementTarget": "Telomerase reverse transcriptase (Homo sapiens) (UniProt O14746)",
    "assayValue": 82
  },
  {
    "compound": "NCC[C@H](O)C(=O)N[C@@H]1C[C@H](N)[C@@H](O[C@H]2O[C@H](CN)[C@@H](O)[C@H](O)[C@H]2O)[C@H](O)[C@H]1O[C@H]1O[C@H](CO)[C@@H](O)[C@H](N)[C@H]1O",
    "measurementTarget": "Telomerase reverse transcriptase (Homo sapiens) (UniProt O14746)",
    "assayValue": 25
  },
  {
    "compound": "CN[C@@H]1[C@H](O)[C@H](NC)[C@H]2O[C@@]3(O)C(=O)C[C@@H](C)O[C@H]3O[C@@H]2[C@H]1O",
    "measurementTarget": "Telomerase reverse transcriptase (Homo sapiens) (UniProt O14746)",
    "assayValue": 0
  },
  {
    "compound": "CN1CCN(c2ccc3[nH]c(-c4ccc5[nH]c(-c6ccc(O)cc6)nc5c4)nc3c2)CC1",
    "measurementTarget": "Telomerase reverse transcriptase (Homo sapiens) (UniProt O14746)",
    "assayValue": 81
  },
  {
    "compound": "NC[C@@H]1O[C@H](O[C@H]2[C@@H](O)[C@H](O[C@@H]3[C@@H](O)[C@H](N)C[C@H](N)[C@H]3O[C@H]3O[C@H](CO)[C@@H](O)[C@H](O)[C@H]3N)O[C@@H]2CO)[C@H](N)[C@@H](O)[C@@H]1O",
    "measurementTarget": "Telomerase reverse transcriptase (Homo sapiens) (UniProt O14746)",
    "assayValue": 60
  },
  {
    "compound": "CN[C@@H]1C[C@H](N)[C@@H](O)[C@H](O[C@H]2O[C@H](CO)[C@H](O)[C@@H]3O[C@@]4(O[C@@H]23)O[C@H]([C@H](N)CO)[C@H](O)[C@H](O)[C@H]4O)[C@H]1O",
    "measurementTarget": "Telomerase reverse transcriptase (Homo sapiens) (UniProt O14746)",
    "assayValue": 0
  }
]
